# assay.comment: yeast display, Sf9 membrane polyspecificity reagent, FACS + sequencing; frameworks hold sequencing errors
property: polyreactivity (PSR sort gate)

QVQLVESGGGLVQAGGSLRLSCAASGIIFRSYAMGWYRQAPGKERELVAAITGGGTTNYADSVKGRFTISRDNAKNTVYLQMNSLKPEDTEVYYCNAGLDWFWFNEMDYWGQGTQVTVSS :: low polyreactivity
QVQLQESGGGLVQAGGSLRLSCAASGNISVTGIMGWYRQAPGKERELVASIGIGGTTYYADSVNGRFSISRDNAKNTVYLQMISLKPEDTALYYLAARYLYYAYSYWGQGTQVTVSS :: low polyreactivity

###

# assay.comment: yeast display, Sf9 membrane polyspecificity reagent, FACS + sequencing; frameworks hold sequencing errors
property: polyreactivity (PSR sort gate)

Some entries whose results are on file:
QVQLVESGGGLVQAGGSLRLSCAASGSSFRSNDMGWYRQAPGKERELVARITSSVGSTYYADSVKGRFTISRDNAKNTVYLQMNSLKPEDTAVYYCAKRYYHYPYGYRDYDYWGQGTQVTVSS :: low polyreactivity
QDQLVESGGGLVQAGGSLRLSFAASGSTFANYAMVWYRQAPGKEREWVAAISFSTVSTYYADSVKGRFTISRDNAKNTVYIQMNSLKPEDTAVYYCNTYYYGSRPSEDYWGQGTQVTVSS :: high polyreactivity
QVQLVVSGGGLVQAGGSLLLSCAASGFTFYSYAMGWYRQAPGKERELVAGISWSGTRTYYADSVKGRFTISRDNAKNTVYLQMISLKPEDTAVYYCAARGYRYGYGYWGQGTQVTVSS :: high polyreactivity
QVQLVESGGGLVQAGGSLRLSCAASGFIFDFYAMGWYRQAPGKERELVATINSSGTTNYADSVKGRFTISRDNAKNTVYLEMISLKPEDTAVYDCATVEYLGHYTYDYWGQGTQVTVSS :: low polyreactivity

Query: For the sequence shown here, "QVQHVESGGGLVQAGGSLRLICAASGSTFYYNAMGWYRQAPGKERELVAAISFSGGSTYYADSVKGRFTISRDNAKNTVYLQMNSLKPDDTAVYYCNRVYYAFYVYYYSTYDYWGQGTQVTLSS" , give the reported polyreactivity (PSR sort gate).
Reply: low polyreactivity

###

# assay.comment: yeast display, Sf9 membrane polyspecificity reagent, FACS + sequencing; frameworks hold sequencing errors
property: polyreactivity (PSR sort gate)

QVQLVESGGGLVQAGGSLRLSCAASGRIFVRNAMGWYRQAPGKERELVAAITRTGASTYYADSVKGRFTISRDNAKNTVYLQMNSLKPEDTAVYYCNKEIVWHLWYESWGQGTQVTVSS :: high polyreactivity
QVQLVESGGGLVQARGSLRLSCPASGSIFSLNAMGWYRQAPGKERELVASISRGGSTNYADSVKGRFTISRDNAKNTVYLQMNSLKPEDTAVYYCAAYWYYYTKSQSSYRFDYWGQGTQVTVSS :: low polyreactivity
QVQLVESGGGLVQAGGSLRLSCAASGSILSYYAMGWYRQAPGKERELVAAISKTGGSTYYADSVKGRFTISRDNANNTVYLHMNSLKPEVTAVYYCAAVDNIGRYEYWGQGTQVTVSS :: high polyreactivity
QVQLVDSGGGLVQAGGSLRLSCAASGFTFRPYAMGWYRQAPGKERELVATITGRGGSTYYADSVKGRFTISRDTAKNTVYLQMNSLKPEDTAVYYCASRARYSPAPYDYWGQGTQVTVSS :: high polyreactivity

Below are 2 sequences. Give each one its polyreactivity (PSR sort gate).
1. QVQLVESGGCLVQAGGSLRLSCAASGSIFERNVMGWYRHAPGKERELVAAITSGGSTNYADSVKGRFTISRDNAKNTVYLQMNSLKPEETAVYYCAADVPYRSRFYRYRLSGGDYWGQGTQVTVSS
2. QVQLVESGGGLVQAGGSLRLSCAASGRTFRFYAMGWYRQAPGKERELVAGITGGGSTNYADSVKGRFTISRDNAKNTVYLQMNSLKPEDTAVYSCNATIRYYRRGKLYDYWGQGTQVTVSS

Reply:
1: low polyreactivity; 2: high polyreactivity

Below are 5 sequences. Give each one its polyreactivity (PSR sort gate).
1. QVQLVESGGGLVQAGGSLRLSCAASGSIFGGNAMGWYRQAPGKERELVATITDRGSSTYYADSVKGRFTISRDNAKNTVYLQMNSLKPEDTAVYYCATAFPDVPEPDYWGQGAQVTVSS
2. QVQLVESGGGLVQAGGSLRLSCAASGSTFLAYAMGWYRQAPGKERELVAAISSRGSRTYYADSVKGRFTISRDNAKNTVYLQMNSLKPEDTAVYYCATPYSRSYSYRYDYWGQGTQVTVSS
3. HVQLQERAAWCRRAGSLRQSCAASGNISHYYFMGWYRQAPGKERELVAAIAPGSNTYYADSVKGRFTISRDNAKNTVYLQMNSLKPEDTAVCFCAANSTQYTWFDYWGQGTQVPVSS
4. QVQLVESGGGLVQAGGSLRLSCAASGSTFNYNPMGWYRQAPGKERELVAAISSSGGSTYYADSVKGRFTISRDNAKNTVYLQMNSLKPEDTAVYYCATGGSSRVRTEGDYWGQGTQVTVSS
5. QVQLVESGGGLVQAGGSLRLTCAASGLIFRPYTMGWYRQAPGKERELVATISGSGASTNYADSVKGRFTNSRDNAKNTVYFQMNSLKPEDTSVYYCKGRSYSRMYYWGQGTQVTVSS

Reply:
1: low polyreactivity; 2: high polyreactivity; 3: low polyreactivity; 4: low polyreactivity; 5: high polyreactivity

Attribution: the nanobody polyreactivity screen of Harvey et al. (2022)
